Source: patent US8399674B2

Measured pKi, listed per entry for reference.
# System: recombinant human 5-HT5A receptor (Homo sapiens, UniProt P47898)
# Construct: membranes
# Sequence (P47898 whole entry): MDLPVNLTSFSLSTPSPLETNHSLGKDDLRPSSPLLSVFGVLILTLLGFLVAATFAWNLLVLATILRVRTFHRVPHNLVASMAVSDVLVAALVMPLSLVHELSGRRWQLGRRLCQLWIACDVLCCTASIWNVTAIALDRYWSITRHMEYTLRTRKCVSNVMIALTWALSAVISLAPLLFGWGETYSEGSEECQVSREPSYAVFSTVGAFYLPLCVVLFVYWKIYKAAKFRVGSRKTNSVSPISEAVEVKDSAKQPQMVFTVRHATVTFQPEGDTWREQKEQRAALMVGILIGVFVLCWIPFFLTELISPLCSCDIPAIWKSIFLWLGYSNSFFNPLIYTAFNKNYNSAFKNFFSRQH
# Assay Overview: [3H]LSD radioligand binding assay, membranes of HEK-EBNA cells transiently expressing the receptor
# Measurement Conditions: [3H]LSD approx. 1 nM, 120 min room temperature, Ki from IC50 by Cheng-Prussoff equation, read-out: Ki (affinity towards the human 5-HT5A receptor)
Remember the convention: pKi equals -log10 of concentration in molar.

{"Query Smiles": "COc1ccccc1CNc1ccc2cc(/C=C/c3cccnc3)ccc2n1", "pKi": 7.22}
{"Query Smiles": "COc1ccccc1CNc1cc(-c2ccccc2)c2cc(NCc3cccnc3)ccc2n1", "pKi": 7.96}

The recorded pKi for "COc1cc(F)ccc1CNc1cc(-c2ccccc2)c2cc(NCc3cccnc3)ccc2n1" is 7.77

The recorded pKi for "COc1ccccc1CNc1ccc2cc(Nc3ccccn3)ccc2n1" is 7.47

The recorded pKi for "COc1ccccc1CNc1ccc2cc(Nc3nnc(C4CC4)o3)ccc2n1" is 7.33

The recorded pKi for "c1ccc(OCCNc2ccc3cc(NCc4ccncc4)ccc3n2)cc1" is 7.00

====

Measured Ki, listed per entry for reference.
# System: recombinant human 5-HT5A receptor (Homo sapiens, UniProt P47898)
# Construct: expressed in transfected cells; host or cells: HEK-EBNA (Human Embryonic Kidney-EBNA) cells, transient transfection; membranes
# Assay Overview: [3H]LSD radioligand binding assay, membranes of HEK-EBNA cells transiently expressing the receptor
# Measurement Conditions: [3H]LSD approx. 1 nM, 120 min room temperature, Ki from IC50 by Cheng-Prussoff equation, read-out: Ki (affinity towards the human 5-HT5A receptor)
Report as a plain number; the unit µM is understood.

See these solved cases before continuing.
{"Compound": "COc1ccccc1CNc1cc(N)c2cc(NCc3ccccc3)ccc2n1 [Example 47]", "System": "recombinant human 5-HT5A receptor (Homo sapiens, UniProt P47898)", "Result Number": 0.03}
{"Compound": "COc1ccccc1CNc1ccc2cc(COc3ccccc3)ccc2n1 [Example 43]", "System": "recombinant human 5-HT5A receptor (Homo sapiens, UniProt P47898)", "Result Number": 0.073}
{"Compound": "COc1ccccc1CNc1ccc2cc(NS(=O)(=O)Nc3ccc(F)cc3)ccc2n1 [Example 81]", "System": "recombinant human 5-HT5A receptor (Homo sapiens, UniProt P47898)", "Result Number": 0.04}

The recorded Ki for COc1ccccc1CNc1ccc2nc(NCc3ccccc3OC)ccc2c1 [Example 15] is 0.017

The recorded Ki for COc1cccc(-c2cc(NCc3ccccc3OC)nc3ccc(NCc4cccnc4)cc23)c1 [Example 33] is 0.05

The recorded Ki for c1cncc(CNc2ccc3nc(NCc4cccc5c4OCO5)ccc3c2)c1 [Example 73] is 0.027

The recorded Ki for COc1ccccc1CNc1ccc2cc(Nc3cc(C)on3)ccc2n1 [Example 88] is 0.026

The recorded Ki for COc1cccc(CNc2ccc3nc(NCc4ccc(C)o4)ccc3c2)c1 [Example 28] is 0.044

The recorded Ki for COc1ccccc1CNc1ccc2nc(NCc3ccccc3OC)cc(-c3ccccc3)c2c1 [Example 20] is 0.03

The recorded Ki for COc1cc(F)ccc1CNc1cc(-c2ccccc2C)c2cc(NCc3ccccc3)ccc2n1 [Example 38] is 0.041

The recorded Ki for COc1cc(F)ccc1CNc1cc(N)c2cc(NCc3ccccc3)ccc2n1 [Example 44] is 0.04

The recorded Ki for COc1cccc(CNc2ccc3nc(NCCOc4ccccc4)ccc3c2)c1 [Example 10] is 0.042

The recorded Ki for Cc1ccc(CNc2ccc3cc(NCc4ccccc4)ccc3n2)o1 [Example 29] is 0.032

The recorded Ki for COc1ccc(NC(=O)Nc2ccc3nc(NCc4ccccc4OC)ccc3c2)cc1 [Example 79] is 0.03

The recorded Ki for COc1ccc(OC(=O)Nc2ccc3nc(NCc4ccccc4OC)ccc3c2)cc1 [Example 80] is 0.087

The recorded Ki for COCCNc1cc(NCc2ccc(F)cc2OC)nc2ccc(NCc3ccccc3)cc12 [Example 42] is 0.169

The recorded Ki for COc1ccccc1CNc1ccc2cc(Nc3nccc(C(F)(F)F)n3)ccc2n1 [Example 94] is 0.03

The recorded Ki for COc1cccc(CNc2ccc3nc(NCc4ccccc4OC)ccc3c2)c1 [Example 16] is 0.017

The recorded Ki for COc1ccccc1CNc1ccc2cc(CCc3ccccc3)ccc2n1 [Example 4] is 0.104

The recorded Ki for c1ccc(OCCNc2ccc3cc(NCc4cccnc4)ccc3n2)cc1 [Example 1] is 0.022

The recorded Ki for Cc1ccc(CNc2ccc3cc(CNc4cccnc4)ccc3n2)o1 [Example 49] is 0.128
